# details: 298.2 K; 101.33 kPa; Liquid; Cone and plate viscometry
Rule: viscosity of 300 mPa·s or more gives Condition met; anything lower gives Condition not met.

| compound | assigned.class |
| --- | --- |
| CC(=O)[O-].C[NH+](CCO)CCO [N-methyldiethanolammonium acetate] | Condition not met |
| CC(O)C(=O)O.OCCNCCO [diethanolamine lactate] | Condition not met |
| CC(=O)[O-].[NH3+]CCO [2-hydroxyethylammonium acetate] | Condition met |
| CC(=O)[O-].OCC[NH2+]CCO [2,2'-azanediylbis(ethanol) acetate] | Condition met |
| CC(O)C(=O)[O-].[NH3+]CCO (stereo not given) [2-hydroxyethylammonium lactate] | Condition not met |
